experiment: yeast display, Sf9 membrane polyspecificity reagent, FACS + sequencing; frameworks hold sequencing errors
experimental-readout: polyreactivity (PSR sort gate)

Answered cases to consult:
query_sequence=QVQLVESGGGLVQAGGSLRLSCAASGFTFSRNTMGSSRQAPGKERELVARIPASGGSTYYADSVKGRFTISRDNAKNTVYLLMNSLNPEDTAVYYCAAVYRRYGASRYDYWGQGTQVTVSS experimental_readout="polyreactivity (PSR sort gate)" test_value="high polyreactivity"
query_sequence=QVQLVESGGGLVQAGGSLRLSCAASGSIFYRNAMGWYRQAPGKERELVAAITSRGGRTYYADSVKGRFTISRDNAKNTVYLQMTSLKPEDTAVYYCAADYRYPAHSYGYWGQGTQVTVSS experimental_readout="polyreactivity (PSR sort gate)" test_value="high polyreactivity"
query_sequence=QVQLVESGGGLVQAGGSLRLSCAPSGGTFVSYVMGWYRQAPGKERELVAAISVSGGRTYYADSVKGRFTISRDNAKNTVYLQMNSLKPEDTAVYYCAADSVVVGSPGNDYWGQGTQVTVSS experimental_readout="polyreactivity (PSR sort gate)" test_value="high polyreactivity"
query_sequence=QVQLVESGGGLVQAGGSLRLSCADSGSTFPYYTMGWYRQAPGKEREFVAAISRSTGRTSYADSVKGRFTISRDNAKNTVYLQMNSVKPEDSAVYDCAVRWYYYRDDTIYVLGRYDYWGQGTQVSVSS experimental_readout="polyreactivity (PSR sort gate)" test_value="high polyreactivity"
query_sequence=QVQLVESGGGLVQAGGSLRLSCAASGSTFDAYAMGWSRQAPGKERELVAAMTNAGSTNYADSVKGRFTISRDNAKNTVYLQMNSLKPEDTAVYYCATDWYHRYLDGRYDYLGQGTQVTVSS experimental_readout="polyreactivity (PSR sort gate)" test_value="low polyreactivity"
query_sequence=QVQLVESGGGLVQAGGSLRLSCAASGFTFTYNAMGWYRQEPGKERELVAAITANGGGTNYADSVKGRFTISRDNAKNTVYLQMNSLKPEDTAVYYCAATIVVAVFESLGFYWYTEENYWGQGTLVTVSS experimental_readout="polyreactivity (PSR sort gate)" test_value="low polyreactivity"
query_sequence=QVQLVESGGGLVQAGGSLRLSCSASGSIFYTYAMGWYRQAPGKERELVAAISRSGGITYYADSVKGRFTISRDNAKNTVYLEMNSLKPEDTAVYFCNVASASPGRYDYWGQGTQVTLSS experimental_readout="polyreactivity (PSR sort gate)" test_value="high polyreactivity"
query_sequence=QVQLVESGGGLVQAGGSLRLSCAASGSIFRYYAMGWYRQAPGKERELVARISRNAGRTYYADSVKGRFTISRDNAKNTVYLQMNSLKPEDTAVYYCAADGSKPYAMDYWGQGTQVTVSS experimental_readout="polyreactivity (PSR sort gate)" test_value="high polyreactivity"
query_sequence=QVQLVESGGGLVQAGGSLRLSCAASGRIFSGNAMGWYRQAPRKERELVAAISRGGSTDYADSVKGRFTISRDNAKNTVYLQMNSLKPEDTAVYYCSARVNGKRRRYDYWGQGTQVTVSS experimental_readout="polyreactivity (PSR sort gate)" test_value="high polyreactivity"
query_sequence=QVQLVESAGALVQAGGSLRLSCAASGPTFSHNAMGWDRQAPGKERELVASIRSGGLTDYADSVKGRFTISRDNAKNTVYLQMTSLKPEDSAVFYCIAEGVWWSTRYDSWGQGTQVTVSS experimental_readout="polyreactivity (PSR sort gate)" test_value="low polyreactivity"

Q: Name the recorded polyreactivity (PSR sort gate) for QVQLVESGGGLVQAGGSLRLSCAASGSTSTDYAMGWYRQAPGKERELVAAISYGGGSTYYADSVKGRFTISRDNAKNTVYLQMNSLKPEDTAVYYCAAVARFPKYRYYSWGQGTQVTVSS .
Result: high polyreactivity

Q: Repeat with QVQLVESGVGLVQAGGSLRLSCAASGSIFLRNDMAWYRQAPGKERELVAGISSVGSTYYADSVKGRFTISRDNAKNTVYLQMNSLKPEDTAVYYCAAERWGNPTDYQFWRPYDYWGQGTQVTVSS
Result: low polyreactivity

Q: Repeat with QVQLVESGGGLVQAGGSLRLSCAASGRILYSYTMGWYRPAPGKEREFVAAITRSGGGTYYADSVKGRFTISRDNAKNTVYLQMNSLKPEDTAVYYCAATRNPYRRSNYDYWGQGTQVTVSS
Result: high polyreactivity

Q: Repeat with QVQLVESGGGLVPAGGSLRLSCAASGFTFEYYVIGWYRHAPGKERELVAAISSRGGSTYYADSVKGRFTISRDNAKNTVYLQMNSLKPDDTAVYYGATRDPYPRRREFEYWGQGTQVTVSS
Result: low polyreactivity

Q: Repeat with QVQLVESGGGLVQAGGSLRLSCAASGSIFLGYAMGWYRQAPGKERELVADIDWRDGSTYYADSVKGRFTISRDNAKTTVYLQMNSLKPEDTAVYYCAVYDNLQWDFGIYYEYDYWGQGTQVTVSS
Result: high polyreactivity

Data origin, for the record: the nanobody polyreactivity screen of Harvey et al. (2022)
